Attribution: ChEMBL document CHEMBL1795332

Biological target: Voltage-dependent L-type calcium channel subunit alpha-1C (Homo sapiens)
Sequence (Q13936 whole entry): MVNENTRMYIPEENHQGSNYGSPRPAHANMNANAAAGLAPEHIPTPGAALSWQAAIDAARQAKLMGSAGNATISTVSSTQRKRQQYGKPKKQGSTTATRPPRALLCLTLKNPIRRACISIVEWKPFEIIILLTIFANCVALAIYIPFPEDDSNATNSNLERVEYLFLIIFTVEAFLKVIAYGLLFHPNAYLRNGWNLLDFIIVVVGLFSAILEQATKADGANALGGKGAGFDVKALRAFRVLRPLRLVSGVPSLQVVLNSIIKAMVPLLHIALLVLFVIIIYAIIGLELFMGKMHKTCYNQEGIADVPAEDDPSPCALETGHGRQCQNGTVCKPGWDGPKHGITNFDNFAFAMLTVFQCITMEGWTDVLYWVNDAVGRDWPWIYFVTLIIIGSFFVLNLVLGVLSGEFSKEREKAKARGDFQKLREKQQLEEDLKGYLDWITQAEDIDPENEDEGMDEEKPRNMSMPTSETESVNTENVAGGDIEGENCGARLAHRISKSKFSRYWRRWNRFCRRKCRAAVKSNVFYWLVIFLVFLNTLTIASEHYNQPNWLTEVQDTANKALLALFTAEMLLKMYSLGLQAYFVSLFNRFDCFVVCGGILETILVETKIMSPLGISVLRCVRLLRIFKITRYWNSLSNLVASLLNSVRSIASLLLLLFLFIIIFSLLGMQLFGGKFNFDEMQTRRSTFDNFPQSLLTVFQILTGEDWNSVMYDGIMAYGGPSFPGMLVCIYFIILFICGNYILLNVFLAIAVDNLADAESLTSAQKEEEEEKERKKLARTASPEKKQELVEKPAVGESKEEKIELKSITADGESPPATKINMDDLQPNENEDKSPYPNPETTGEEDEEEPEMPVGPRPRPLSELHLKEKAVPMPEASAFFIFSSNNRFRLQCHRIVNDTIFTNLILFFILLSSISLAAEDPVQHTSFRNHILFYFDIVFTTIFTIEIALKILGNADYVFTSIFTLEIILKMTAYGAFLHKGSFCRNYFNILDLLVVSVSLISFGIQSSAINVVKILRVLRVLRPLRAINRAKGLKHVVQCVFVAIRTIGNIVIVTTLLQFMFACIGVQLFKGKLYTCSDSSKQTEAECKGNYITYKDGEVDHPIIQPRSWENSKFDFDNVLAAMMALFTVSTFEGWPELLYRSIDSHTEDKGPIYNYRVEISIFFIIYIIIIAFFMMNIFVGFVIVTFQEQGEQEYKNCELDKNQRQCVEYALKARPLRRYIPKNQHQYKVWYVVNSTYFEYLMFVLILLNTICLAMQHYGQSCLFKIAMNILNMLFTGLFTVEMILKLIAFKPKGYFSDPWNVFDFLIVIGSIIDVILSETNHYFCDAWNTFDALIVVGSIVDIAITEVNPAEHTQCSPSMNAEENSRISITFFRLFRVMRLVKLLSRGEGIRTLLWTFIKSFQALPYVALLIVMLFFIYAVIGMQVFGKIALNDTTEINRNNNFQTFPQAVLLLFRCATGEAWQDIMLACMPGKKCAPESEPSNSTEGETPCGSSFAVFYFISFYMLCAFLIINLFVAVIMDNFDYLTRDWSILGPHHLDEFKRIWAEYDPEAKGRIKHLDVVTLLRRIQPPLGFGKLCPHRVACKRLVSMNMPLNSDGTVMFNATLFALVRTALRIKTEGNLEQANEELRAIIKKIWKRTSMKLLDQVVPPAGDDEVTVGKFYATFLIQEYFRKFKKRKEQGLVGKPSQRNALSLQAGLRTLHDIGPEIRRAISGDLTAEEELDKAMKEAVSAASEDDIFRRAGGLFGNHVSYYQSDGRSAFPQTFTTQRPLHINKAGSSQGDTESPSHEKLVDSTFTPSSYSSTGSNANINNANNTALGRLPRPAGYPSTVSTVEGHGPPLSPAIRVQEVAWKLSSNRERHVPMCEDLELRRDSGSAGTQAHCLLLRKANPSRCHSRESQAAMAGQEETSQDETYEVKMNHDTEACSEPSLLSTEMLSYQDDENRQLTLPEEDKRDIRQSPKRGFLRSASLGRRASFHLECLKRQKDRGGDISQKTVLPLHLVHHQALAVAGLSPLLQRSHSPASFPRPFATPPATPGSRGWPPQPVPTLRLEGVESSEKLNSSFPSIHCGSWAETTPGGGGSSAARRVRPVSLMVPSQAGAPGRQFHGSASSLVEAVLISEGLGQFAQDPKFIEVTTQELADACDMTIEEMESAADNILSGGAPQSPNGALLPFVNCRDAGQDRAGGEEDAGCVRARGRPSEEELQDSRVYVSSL
Test: Inhibition of human Cav1.2
Assay Metric: IC50

Hello, I am looking for reported IC50 with Voltage-dependent L-type calcium channel subunit alpha-1C (Homo sapiens) for COCCCn1cc(CN(C(=O)[C@H]2CNCC[C@@H]2c2ccn(C)c(=O)c2)C2CC2)c2ccccc21 . Could you help?
> 30 µM

* * *

Assay: Oral bioavailability in Sprague-Dawley rat at 3 mg/kg
Format: ADME, organism-based
Details: in vivo
Hi there, I'd appreciate the recorded bioavailability for every entry that follows.
Provide the reading as a plain figure in %.

Item Cn1ccc([C@H]2CCNC[C@@H]2C(=O)N(Cc2cn(Cc3cccnc3)c3cccc(F)c23)C2CC2)cc1=O has what recorded bioavailability?
0

Reported bioavailability for Cn1ccc([C@H]2CCNC[C@@H]2C(=O)N(Cc2cn(Cc3ccncc3)c3cccc(F)c23)C2CC2)cc1=O : what is it?
0

Requested field: bioavailability. Item: Cn1ccc([C@H]2CCNC[C@@H]2C(=O)N(Cc2cn(Cc3ccccc3)c3cccc(F)c23)C2CC2)cc1=O
16

bioavailability lookup needed for COCCCn1cc(CN(C(=O)[C@H]2CNCC[C@@H]2c2ccn(C)c(=O)c2)C2CC2)c2c(Br)cccc21 , thanks.
3

I am curious: what bioavailability value has been reported for Cn1ccc([C@H]2CCNC[C@@H]2C(=O)N(Cc2c[nH]c3cccc(F)c23)C2CC2)cc1=O ?
0
